TESTED_SYSTEM: UniProt Q2M2I8
Sequence (Q2M2I8 whole entry): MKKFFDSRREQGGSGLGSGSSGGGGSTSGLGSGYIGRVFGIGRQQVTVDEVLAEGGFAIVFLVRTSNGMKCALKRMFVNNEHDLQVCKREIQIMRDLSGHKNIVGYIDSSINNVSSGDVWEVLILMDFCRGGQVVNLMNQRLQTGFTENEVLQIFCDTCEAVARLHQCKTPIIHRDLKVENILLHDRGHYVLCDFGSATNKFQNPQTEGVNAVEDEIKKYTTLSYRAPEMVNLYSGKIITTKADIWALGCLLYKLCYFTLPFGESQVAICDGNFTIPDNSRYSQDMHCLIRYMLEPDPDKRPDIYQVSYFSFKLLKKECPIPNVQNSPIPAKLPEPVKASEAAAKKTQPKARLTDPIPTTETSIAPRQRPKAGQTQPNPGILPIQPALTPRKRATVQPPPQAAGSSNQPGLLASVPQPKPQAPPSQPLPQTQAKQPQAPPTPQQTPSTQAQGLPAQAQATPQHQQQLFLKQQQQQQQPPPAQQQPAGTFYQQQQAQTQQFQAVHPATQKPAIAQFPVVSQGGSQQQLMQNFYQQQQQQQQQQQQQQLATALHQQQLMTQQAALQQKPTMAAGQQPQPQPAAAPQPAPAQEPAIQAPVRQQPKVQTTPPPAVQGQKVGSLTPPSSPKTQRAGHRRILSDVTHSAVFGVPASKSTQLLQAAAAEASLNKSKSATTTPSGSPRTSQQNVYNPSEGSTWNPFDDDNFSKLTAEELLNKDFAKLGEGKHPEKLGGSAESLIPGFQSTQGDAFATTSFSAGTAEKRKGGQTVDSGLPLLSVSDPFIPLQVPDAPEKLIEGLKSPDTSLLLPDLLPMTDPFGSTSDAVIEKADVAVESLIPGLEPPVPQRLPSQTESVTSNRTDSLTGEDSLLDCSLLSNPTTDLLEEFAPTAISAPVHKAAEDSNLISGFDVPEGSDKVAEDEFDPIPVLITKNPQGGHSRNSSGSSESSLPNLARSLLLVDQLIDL
Activity calls are given as the source filed them.
In this exercise, the only acceptable responses are y for active, n for inactive

Solved entries (count: 3):
COMPOUND: CN1CCC(COc2cnc(-c3cccc(Cn4nc(-c5cccc(C#N)c5)ccc4=O)c3)nc2)CC1
CATEGORY_LABEL: n
--
COMPOUND: COCCNCc1ccc(-c2cc3nccc(Oc4ccc(NC(=S)NC(=O)Cc5ccc(F)cc5)cc4F)c3s2)nc1
CATEGORY_LABEL: n
--
COMPOUND: COc1cc(N2CCC(N3CCN(C)CC3)CC2)ccc1Nc1ncnc(Nc2ccccc2S(=O)(=O)C(C)C)n1
CATEGORY_LABEL: y

Enquiry: Recorded call for CC[C@@H]1C(=O)N(C)c2cnc(Nc3ccc(C(=O)N[C@H]4CC[C@H](N5CCN(CC6CC6)CC5)CC4)cc3OC)nc2N1C(C)C ?
Return: n

Enquiry: Would you kindly repeat that for CN1N=C(N)c2cn([C@@H]3O[C@H](COP(=O)(O)O)[C@@H](O)[C@H]3O)c3ncnc1c23 [TRICIRIBINE PHOSPHATE] ?
Return: n

Enquiry: // same read-out, input: CCn1c(=O)c(-c2cc[nH]n2)cc2c(C)nc(N)nc21
Return: n

Enquiry: Please do the same for Cc1ccc(-n2nc(C(C)(C)C)cc2NC(=O)NCc2cc(F)ccc2Oc2ccc3c(cnn3CCO)c2)cc1 as well.
Return: n

Enquiry: Field entry: Cc1ccc(S(=O)(=O)Nc2nc3ccccc3nc2Nc2ccc3nsnc3c2)cc1
Return: n

Enquiry: Let us now turn to O=C(O)[C@]1(Cc2cccc(Nc3nccs3)n2)CC[C@@H](Oc2cccc(Cl)c2F)CC1
Return: n

Enquiry: Then what about the compound O=C(Nc1cccc(Cl)c1)Nc1ncc(CCNc2ncnc3ccsc23)s1 ?
Return: n
